FYI, the data here is from the NIST ThermoML archive (doi:10.1021/acs.jced.9b00134).

compounds and their reported mass density
experiment: xn = mol fraction of the nth substance listed; conditions: 318 K; 101.13 kPa; Liquid; Vibrating tube method; x1 = 0.5
PROPERTY NAME: mass density (kg/m3)

{"columns": ["COMPOUND", "PROPERTY NAME", "MEASUREMENT"],
 "data": [
  ["C[N+](C)(C)Cc1ccccc1.[Cl-] [trimethylbenzylammonium chloride] + OCCO", "mass density", 1091],
  ["C[N+](C)(C)Cc1ccccc1.[Cl-] [trimethylbenzylammonium chloride] + CCC(O)CO", "mass density", 1057],
  ["C[N+](C)(C)Cc1ccccc1.[Cl-] [trimethylbenzylammonium chloride] + OCCCCCCO", "mass density", 1107.1],
  ["C[N+](C)(C)Cc1ccccc1.[Cl-] [trimethylbenzylammonium chloride] + OCC(O)CO", "mass density", 1155]
]}
